Values compiled from patent US20260083865A1.

- targetDesc: Fc-fusion protein of human PSMA (hPSMA-Fc) (Homo sapiens)
- Construct: purchased Acro Biosystems PSA-H5264
- Sequence (Q04609 44-750 limits assumed): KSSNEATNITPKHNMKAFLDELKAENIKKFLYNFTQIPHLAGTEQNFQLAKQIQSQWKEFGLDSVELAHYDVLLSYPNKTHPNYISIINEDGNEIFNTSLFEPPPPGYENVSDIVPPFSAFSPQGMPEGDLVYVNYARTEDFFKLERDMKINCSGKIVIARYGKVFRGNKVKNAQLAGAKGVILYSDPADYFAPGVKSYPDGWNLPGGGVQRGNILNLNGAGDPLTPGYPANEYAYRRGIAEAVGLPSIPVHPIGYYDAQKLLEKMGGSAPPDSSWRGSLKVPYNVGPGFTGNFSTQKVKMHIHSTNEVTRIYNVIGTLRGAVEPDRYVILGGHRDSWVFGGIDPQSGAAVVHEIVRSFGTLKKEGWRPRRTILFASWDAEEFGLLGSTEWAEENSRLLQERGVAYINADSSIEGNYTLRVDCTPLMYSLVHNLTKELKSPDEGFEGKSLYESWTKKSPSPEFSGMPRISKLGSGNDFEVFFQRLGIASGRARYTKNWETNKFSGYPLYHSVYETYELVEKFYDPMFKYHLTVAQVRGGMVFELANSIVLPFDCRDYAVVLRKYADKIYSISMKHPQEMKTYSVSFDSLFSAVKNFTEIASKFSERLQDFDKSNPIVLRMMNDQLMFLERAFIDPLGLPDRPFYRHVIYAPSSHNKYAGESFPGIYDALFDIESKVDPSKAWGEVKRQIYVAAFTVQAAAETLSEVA
- procedureSummary: Surface plasmon resonance assay (Biacore T200, single cycle kinetic)
- Assay type: binding
- appliedConditions: PSMA SPR assay, hPSMA-Fc, 25° C.; pKD category; read-out: pKD CAT (converted)
Numbered stars: 1 amine (or outer) side, 2 acyl side, 3 side chain; on linkers, the order of the positions; unused ones are H or OH. Bridge positions count the residues as written; N and C are the ends. Square brackets hold non-standard residues; d marks the D form. Peptide text beside a SMILES is read from it. * marks the point of attachment. DOTA = O=C(O)CN1CCN(CC(=O)O)CCN(CC(=O)*)CCN(CC(=O)O)CC1; Phe(4-Cl) = N[C@@H](Cc1ccc(Cl)cc1)C(=O)O; X1 = O=C(CC1CCN([*:1])CC1)[*:2]; Tle = CC(C)(C)[C@H](N)C(=O)O; Nle = CCCC[C@H](N)C(=O)O; Aib = CC(C)(N)C(=O)O
reportedProperty: Kd

GET /value?item= CCCC[C@@H]1NC(=O)[C@H](CCCCN)NC(=O)[C@@H](NC(=O)[C@H](Cc2ccc(Cl)cc2)NC(=O)C(C)(C)NC(=O)[C@@H](NC(C)=O)[C@@H](C)O)CSSC[C@@H](C(=O)N[C@H](C(=O)N[C@H](C(N)=O)[C@@H](C)O)C(C)(C)C)NC(=O)[C@H](CC(N)=O)NC(=O)C(C)(C)NC1=O [PSM-0338] (Ac-T[Aib][Phe(4-Cl)]CK[Nle][Aib]NC[Tle]T-NH2; disulfide 4-9) &field=Kd returns < 12.6 nM

Note to self: Kd recorded for CC(=O)NC(=N)NCCC[C@@H]1NC(=O)[C@H](CCCCN)NC(=O)[C@@H](NC(=O)[C@H](Cc2ccc(Cl)cc2)NC(=O)C(C)(C)NC(C)=O)CSSC[C@@H](C(=O)N[C@H](C(=O)N[C@H](C(=O)N2CCC(CC(=O)N[C@H](CCCCNC(=O)CN3CCN(CC(=O)O)CCN(CC(=O)O)CCN(CC(=O)O)CC3)C(N)=O)CC2)[C@@H](C)O)C(C)(C)C)NC(=O)[C@H](CC(N)=O)NC(=O)C(C)(C)NC1=O [PSM-0298] (Ac-[Aib][Phe(4-Cl)]CKR(Ac)[Aib]NC[Tle]T[X1][dK](DOTA)-NH2; disulfide 3-8) was 12.6 to 126 nM
